# TESTED_SYSTEM: Human αvβ3 (Homo sapiens, UniProt P05106+P06756)
# Construct: purchased Chemicon International Inc., Temecula, Calif
# Sequence (P06756 31-889 limits assumed): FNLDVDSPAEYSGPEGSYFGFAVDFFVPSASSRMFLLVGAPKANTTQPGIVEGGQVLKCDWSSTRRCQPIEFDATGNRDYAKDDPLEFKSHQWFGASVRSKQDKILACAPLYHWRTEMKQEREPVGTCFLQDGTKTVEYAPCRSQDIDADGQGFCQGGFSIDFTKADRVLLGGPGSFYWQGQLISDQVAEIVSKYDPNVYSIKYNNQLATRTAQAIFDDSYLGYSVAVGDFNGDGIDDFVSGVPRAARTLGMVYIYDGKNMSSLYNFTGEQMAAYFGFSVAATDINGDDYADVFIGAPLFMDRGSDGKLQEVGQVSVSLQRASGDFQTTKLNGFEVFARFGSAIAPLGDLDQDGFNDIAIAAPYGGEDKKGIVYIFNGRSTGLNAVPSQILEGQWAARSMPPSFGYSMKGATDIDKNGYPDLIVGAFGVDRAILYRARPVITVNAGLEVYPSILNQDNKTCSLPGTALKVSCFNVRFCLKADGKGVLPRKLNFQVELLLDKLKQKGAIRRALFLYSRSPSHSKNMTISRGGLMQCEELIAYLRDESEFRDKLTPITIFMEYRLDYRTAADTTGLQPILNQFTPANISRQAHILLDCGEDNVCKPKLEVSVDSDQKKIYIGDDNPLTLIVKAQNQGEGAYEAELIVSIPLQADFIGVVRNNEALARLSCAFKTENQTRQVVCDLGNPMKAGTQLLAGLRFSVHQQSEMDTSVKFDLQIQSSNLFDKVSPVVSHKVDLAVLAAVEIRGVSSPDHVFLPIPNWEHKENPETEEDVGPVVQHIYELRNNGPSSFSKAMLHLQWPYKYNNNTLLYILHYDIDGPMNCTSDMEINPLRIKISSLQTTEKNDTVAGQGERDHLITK
# Sequence (P06756 891-1048 partner limits assumed): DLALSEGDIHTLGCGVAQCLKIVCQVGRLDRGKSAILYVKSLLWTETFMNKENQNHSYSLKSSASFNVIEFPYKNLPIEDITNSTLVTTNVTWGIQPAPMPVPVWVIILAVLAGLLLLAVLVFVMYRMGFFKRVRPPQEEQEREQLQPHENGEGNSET
# Sequence (P05106 27-788): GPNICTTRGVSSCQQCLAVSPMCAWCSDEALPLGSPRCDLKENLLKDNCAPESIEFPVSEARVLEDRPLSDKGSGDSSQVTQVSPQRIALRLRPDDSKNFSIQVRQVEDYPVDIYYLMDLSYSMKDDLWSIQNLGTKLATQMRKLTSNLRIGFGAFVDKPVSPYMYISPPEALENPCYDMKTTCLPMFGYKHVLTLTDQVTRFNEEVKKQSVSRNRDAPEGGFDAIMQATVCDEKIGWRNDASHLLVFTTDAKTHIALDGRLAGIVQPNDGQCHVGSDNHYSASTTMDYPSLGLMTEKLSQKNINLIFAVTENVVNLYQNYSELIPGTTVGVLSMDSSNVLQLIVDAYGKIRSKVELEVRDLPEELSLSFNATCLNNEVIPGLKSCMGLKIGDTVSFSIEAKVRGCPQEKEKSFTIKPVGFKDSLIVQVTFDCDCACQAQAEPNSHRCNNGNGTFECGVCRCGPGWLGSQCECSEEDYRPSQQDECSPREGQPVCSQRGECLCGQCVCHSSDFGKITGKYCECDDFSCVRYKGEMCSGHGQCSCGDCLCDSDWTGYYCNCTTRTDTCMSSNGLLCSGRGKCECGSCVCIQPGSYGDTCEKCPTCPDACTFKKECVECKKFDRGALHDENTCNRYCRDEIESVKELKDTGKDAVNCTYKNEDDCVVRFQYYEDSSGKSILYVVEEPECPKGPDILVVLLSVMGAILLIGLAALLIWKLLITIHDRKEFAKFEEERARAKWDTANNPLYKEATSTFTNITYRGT
# RUN_DESCRIPTION: In vitro solid phase purified αvβ3 binding assay (vitronectin/αvβ3)
# MEASUREMENT_CONTEXT: read-out: Antagonist IC50 Activity αVβ3
MEASURED_PROPERTY: IC50 (nM)
API: value field is a number in nM; no unit string.

[[record]]
compound = "O=C(O)C[C@H]1c2ccccc2[C@@H]2CN(C(=O)Cc3cccc(NC4=NCCCN4)c3)CC[C@H]12 (single isomer, unassigned)"
reading = 126


*Q* Entry O=C(O)C[C@@H]1c2ccccc2[C@@H]2CN(C(=O)Cc3cccc(NC4=NCCCN4)c3)CC[C@H]12 (single isomer, unassigned) has what IC50?
*A* 66

*Q* Entry O=C(O)CC1c2ccccc2C2CN(C(=O)CCc3ccc4c(n3)NCCC4)CC12 (racemic) [Cpd 12] has what IC50?
*A* 26

*Q* Entry O=C(O)CC1c2ccccc2C2CN(C(=O)CCCc3ccc4c(n3)NCCC4)CC12 (racemic) has what IC50?
*A* 411
